Assay: Cytotoxicity against mouse RAW264.7 cells assessed as reduction in cell viability after 48 hrs by MTT assay
Format: toxicity
MEASURE: CC50 at 48 h

Sure, the documented CC50 at 48 h for "C=C/C(C)=C/C[C@H]1[C@](C)(O)[C@@H](O)C[C@H]2C(C)(C)CCC[C@@]21C" is 94.5 µM

CC50 at 48 h reported for this molecule "CC1=CC(=O)O[C@]12C[C@@H]1[C@@]3(C)CCCC(C)(C)[C@@H]3C[C@H](O)[C@@]1(C)O2" : > 100 µM

Please fill in: CC50 at 48 h reported for "C/C(=C\CO)[C@H]1C[C@@H]2[C@@]3(C)CCCC(C)(C)[C@@H]3C[C@H](O)[C@@]2(C)O1" = > 100 µM

Briefly, CC50 at 48 h measured for COc1ccc2c(c1)c(CC(=O)O)c(C)n2C(=O)c1ccc(Cl)cc1 [INDOMETHACIN] : > 200 µM

The measured CC50 at 48 h associated with "C/C(C=O)=C\C[C@H]1[C@](C)(O)[C@@H](O)C[C@H]2C(C)(C)CCC[C@@]21C" reads > 100 µM

Reported CC50 at 48 h for "CC1=CC(=O)O[C@@]12C[C@@H]1[C@@]3(C)CCCC(C)(C)[C@@H]3C[C@H](O)[C@@]1(C)O2" was > 100 µM
